System: P388 leukemia ip, CD2F1 mice, survival T/C
Assay: NCI In Vivo Anticancer Drug Screen. Data for tumor model P388 Leukemia (intraperitoneal) in CD2F1 (CDF1) mice
Details: endpoint: median survival time; dose: 400.0 mg/kg/injection; schedule: Q01DX001 (ip); vehicle: Klucel (hydroxypropylcellulose) (HPC); higher = longer survival
Description: The antitumor activity of compounds was measured in mice bearing transplantable tumors. Survival or tumor size were measured and the results are expressed as the measurement made in the treated group (T) divided by the measurement made in the vehicle treated control group (C). The tumor model used in this assay is P388 Leukemia (intraperitoneal) in CD2F1 (CDF1) mice
Toxic doses and inconclusive results are not listed.
Outcome Measure: T/C

* O=C1Nc2ccccc2/C1=c1/sc2nc3ccccc3n2c1=O | 89 % of control
* FC(F)(F)c1nn2c(-c3cnns3)nnc2s1 | 104 % of control
* O=C1C2CCC(N1c1ccc(F)cc1)n1c(=O)n(-c3ccccc3)c(=O)n12 (centres undefined) | 100 % of control
* CCOC(=O)CN=NNc1ccc([N+](=O)[O-])cc1 | 109 % of control
* CC(=O)C1(CCC(C)(S(=O)(=O)c2ccccc2)S(=O)(=O)c2ccccc2)CCCCC1=O (centres undefined) | 106 % of control
* COc1ccccc1-n1c(=O)c(N=Nc2ccccc2Cl)c(O)n(-c2ccccc2Cl)c1=S | 101 % of control
* c1ccc(C2=C(c3ccccc3)C3SC4CCCC3C4(N3CCOCC3)S2)cc1 (centres undefined) | 93 % of control
* c1ccc(C2CO2)cc1 (centres undefined) | 102 % of control
* Cc1cccc(-n2c(-c3ccccc3)cs/c2=N\N=C2/CSC(=O)N2Cc2ccccc2)c1 | 99 % of control
